System: SW1417 (Colorectal Carcinoma);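 further: after 72 h of two-drug dosing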
Test: Bliss excess, mean over the matrix (fraction); higher = more synergy
assayEndpoint: Bliss excess

1. O=C(c1cc(Cc2n[nH]c(=O)c3ccccc23)ccc1F)N1CCN(C(=O)C2CC2)CC1 [Olaparib] + CC1(C)CCC(CN2CCN(c3ccc(C(=O)NS(=O)(=O)c4ccc(NCC5CCOCC5)c([N+](=O)[O-])c4)c(Oc4cnc5[nH]ccc5c4)c3)CC2)=C(c2ccc(Cl)cc2)C1 [Venetoclax] (first compound max 10 µM, 7x7, partner max 1 µM)    -0.0223
2. CC1(C)CCC(CN2CCN(c3ccc(C(=O)NS(=O)(=O)c4ccc(NCC5CCOCC5)c([N+](=O)[O-])c4)c(Oc4cnc5[nH]ccc5c4)c3)CC2)=C(c2ccc(Cl)cc2)C1 [Venetoclax] + Cc1cc2ncnn2cc1Nc1ncc2c(n1)n(C1CCOCC1)c(=O)n2C [AZD7648] (first compound max 1 µM, 7x7, partner max 10 µM)    -0.0705
